All figures here come from patent US4160839A.

Reported values of MBB rating (larvae dead) for individual entries
system: Mexican bean beetle (MBB) larvae; assay: Spray test, Mexican bean beetle (MBB) larvae on bean leaves; assay type: in vivo; conditions: 62 ppm; approx. 48 h after spraying

These solved cases illustrate the format of a correct answer.
compound="C=CCSc1nc(C(C)C)nn1C(=O)N(C)C [R=2-propenyl (allyl), R'=isopropyl]" target_entity="Mexican bean beetle (MBB) larvae" reported_metric="MBB rating (larvae dead)" result="2 (26-50% larvae dead)"
compound="C#CCSc1nc(C(C)(C)C)nn1C(=O)N(C)C [R=2-propynyl, R'=tert.butyl]" target_entity="Mexican bean beetle (MBB) larvae" reported_metric="MBB rating (larvae dead)" result="5 (100% larvae dead)"
compound="C#CCSc1nc(C(C)C)nn1C(=O)N(C)C [R=2-propynyl, R'=isopropyl]" target_entity="Mexican bean beetle (MBB) larvae" reported_metric="MBB rating (larvae dead)" result="5 (100% larvae dead)"

Tested on Mexican bean beetle (MBB) larvae: C#CCSc1nc(C2CC2)nn1C(=O)N(C)C [R=2-propynyl (propargyl), R'=cyclopropyl] . Observed MBB rating (larvae dead): 3 (51-75% larvae dead)

Tested on Mexican bean beetle (MBB) larvae: C=CCSc1nc(C(C)(C)C)nn1C(=O)N(C)C [R=2-propenyl (allyl), R'=tert.butyl] . Observed MBB rating (larvae dead): 1 (1 -25% larvae dead)

Tested on Mexican bean beetle (MBB) larvae: C#CCSc1nc(CCC)nn1C(=O)N(C)C [R=2-propynyl, R'=propyl] . Observed MBB rating (larvae dead): 3 (51-75% larvae dead)

Tested on Mexican bean beetle (MBB) larvae: C=CCSc1nc(C2CC2)nn1C(=O)N(C)C [R=2-propenyl (allyl), R'=cyclopropyl] . Observed MBB rating (larvae dead): 0 (no larvae dead)

Tested on Mexican bean beetle (MBB) larvae: C=CC(C)Sc1nc(C(C)(C)C)nn1C(=O)N(C)C (centres unmarked) [R=1-methylallyl, R'=tert.butyl] . Observed MBB rating (larvae dead): 0 (no larvae dead)

====

system: southern armyworm (SA) larvae; experiment: Spray test, southern armyworm (SA) larvae on bean leaves; type: in vivo; conditions: 125 ppm; approx. 48 h after spraying
Reported values of SA rating (larvae dead) for individual entries

compound="C=CC(C)Sc1nc(C(C)(C)C)nn1C(=O)N(C)C (stereo not shown)" result="0 (no larvae dead)"
compound=C=CCSc1nc(C2CC2)nn1C(=O)N(C)C result="0 (no larvae dead)"

So, "C#CCSc1nc(C(C)C)nn1C(=O)N(C)C" ? Its SA rating (larvae dead) was 3 (51-75% larvae dead)

So, "C#CCSc1nc(C(C)(C)C)nn1C(=O)N(C)C" ? Its SA rating (larvae dead) was 2 (26-50% larvae dead)

====

tested on: Mexican bean beetle (MBB) larvae; test: Spray test, Mexican bean beetle (MBB) larvae on bean leaves; format: in vivo; conditions: 125 ppm; approx. 48 h after spraying
Reported values of MBB rating (larvae dead) for individual entries

These solved cases illustrate the format of a correct answer.
compound=C=CCSc1nc(C(C)C)nn1C(=O)N(C)C reported_metric="MBB rating (larvae dead)" result="5 (100% larvae dead)"
compound=C=CCSc1nc(C2CC2)nn1C(=O)N(C)C reported_metric="MBB rating (larvae dead)" result="2 (26-50% larvae dead)"
compound="C=CC(C)Sc1nc(C(C)(C)C)nn1C(=O)N(C)C (centres unmarked)" reported_metric="MBB rating (larvae dead)" result="1 (1 -25% larvae dead)"

So, "C=CCSc1nc(C(C)(C)C)nn1C(=O)N(C)C" ? Its MBB rating (larvae dead) was 5 (100% larvae dead)

So, "C#CCSc1nc(C2CC2)nn1C(=O)N(C)C" ? Its MBB rating (larvae dead) was 5 (100% larvae dead)

So, "C#CCSc1nc(CCC)nn1C(=O)N(C)C" ? Its MBB rating (larvae dead) was 5 (100% larvae dead)

So, "C#CCSc1nc(C(C)(C)C)nn1C(=O)N(C)C" ? Its MBB rating (larvae dead) was 5 (100% larvae dead)

So, "C#CCSc1nc(C(C)C)nn1C(=O)N(C)C" ? Its MBB rating (larvae dead) was 5 (100% larvae dead)

====

test system: bean aphids (BA); test: Spray test, bean aphids (BA) on nasturtiums; assay type: in vivo; settings: 4 ppm; approx. 48 h after spraying
Reported values of BA rating (dead) for individual entries

These solved cases illustrate the format of a correct answer.
chemical_string=C=C(C)CSc1nc(C(C)(C)C)nn1C(=O)N(C)C result="4 (76-99% dead)"
chemical_string=C#CCSc1nc(CCC)nn1C(=O)N(C)C result="0 (none dead)"

Now look at this entry.
So, "C#CCSc1nc(C2CC2)nn1C(=O)N(C)C" ? Its BA rating (dead) was 3 (51-75% dead)

====

tested on: Southern Corn Rootworm (SCR); assay: Southern Corn Rootworm (SCR) soil treatment test, root feeding damage on corn; assay type: in vivo; set-up: scale not given here; settings: 50 ppm; nine days after treatment
reported metric: SCR Rating (root feeding damage)
Number only, no unit.

compound=C=C(Br)CSc1nc(C2CC2)nn1C(=O)N(C)C reported_metric="SCR Rating (root feeding damage)" quantitative_readout=0.3
compound="C=CCSc1nc(C2CC2)nn1C(=O)N(C)C [R=2-propenyl (allyl), R'=cyclopropyl]" reported_metric="SCR Rating (root feeding damage)" quantitative_readout=3.5
compound="C#CCSc1nc(C2CC2)nn1C(=O)N(C)C [R=2-propynyl (propargyl), R'=cyclopropyl]" reported_metric="SCR Rating (root feeding damage)" quantitative_readout=4.3
compound="C#CCSc1nc(CCC)nn1C(=O)N(C)C [R=2-propynyl, R'=propyl]" reported_metric="SCR Rating (root feeding damage)" quantitative_readout=2.7

Now look at this entry.
So, C#CCSc1nc(C(C)C)nn1C(=O)N(C)C [R=2-propynyl, R'=isopropyl] ? Its SCR Rating (root feeding damage) was 2.7
